target.or.test.system: Endothelin-1 receptor (Homo sapiens, UniProt P25101)
Sequence (P25101 whole entry): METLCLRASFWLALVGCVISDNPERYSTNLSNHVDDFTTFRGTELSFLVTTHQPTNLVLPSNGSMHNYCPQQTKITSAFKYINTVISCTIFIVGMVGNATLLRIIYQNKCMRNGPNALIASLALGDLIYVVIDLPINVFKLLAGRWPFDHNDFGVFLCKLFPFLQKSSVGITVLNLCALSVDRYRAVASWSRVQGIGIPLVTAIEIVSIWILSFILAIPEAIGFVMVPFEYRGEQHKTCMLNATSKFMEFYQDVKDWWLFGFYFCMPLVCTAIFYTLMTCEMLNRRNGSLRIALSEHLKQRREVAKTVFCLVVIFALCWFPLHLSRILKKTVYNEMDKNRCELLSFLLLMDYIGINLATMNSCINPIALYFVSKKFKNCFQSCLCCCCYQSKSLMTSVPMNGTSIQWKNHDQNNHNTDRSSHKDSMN
method.notes: Displacement of [125I]ET-1 from Endothelin A receptor
pIC50: −log10 of the molar value. Where a SMILES comes first, the peptide text is derived from it. [ ]: non-standard residue; d: D form.
Binary call on pIC50: 1 from 10 upward, 0 beneath that.

compound: CO/N=C(\C)c1cc(C)cc(C)c1NC(=O)c1sccc1S(=O)(=O)Nc1onc(C)c1Cl
target.or.test.system: Endothelin-1 receptor (Homo sapiens, UniProt P25101)
class.label: 1
//
compound: CCC(=O)c1c(C)c(C)cc(C)c1NC(=O)c1sccc1S(=O)(=O)Nc1onc(C)c1Cl
target.or.test.system: Endothelin-1 receptor (Homo sapiens, UniProt P25101)
class.label: 1
//
compound: C/C(=N\O)c1cc(C)cc(C)c1NC(=O)c1sccc1S(=O)(=O)Nc1onc(C)c1Cl
target.or.test.system: Endothelin-1 receptor (Homo sapiens, UniProt P25101)
class.label: 1
//
compound: CCCc1c(O)c(C(C)=O)cc(C(C)=O)c1NC(=O)c1sccc1S(=O)(=O)Nc1onc(C)c1Cl
target.or.test.system: Endothelin-1 receptor (Homo sapiens, UniProt P25101)
class.label: 0

--- query ---
Is reported pIC50 greater than or equal to 10 here: CC(C)C[C@@H]1NC(=O)[C@@H](C(C)C)NC(=O)[C@@H]2CCCN2C(=O)[C@@H](CC(=O)O)NC(=O)[C@@H](Cc2c[nH]c3ccccc23)NC1=O [BQ-123] (cyclo(L[dW][dD]P[dV]))
0

====

method.notes: Compound was evaluated for area under the curve expressed as (h*ug/ml)
Assay type: ADME, organism-based
Parameters: concentration or dose not given beside the values
condition.info: rat, in vivo
// reported log10 AUC per item
Hello, just confirming the data are log10 of AUC with units of ng·h/mL.

compound: C/C(=N\O)c1cc(C)cc(C)c1NC(=O)c1sccc1S(=O)(=O)Nc1onc(C)c1Cl
log10 AUC: 4.60
--
compound: CCCS(=O)(=O)c1cc(C)cc(C)c1NC(=O)c1sccc1S(=O)(=O)Nc1onc(C)c1Cl
log10 AUC: 3.77
--
compound: CO/N=C(\C)c1cc(C)cc(C)c1NC(=O)c1sccc1S(=O)(=O)Nc1onc(C)c1Cl
log10 AUC: 4.53
--
compound: Cc1cc(C)c(NC(=O)c2sccc2S(=O)(=O)Nc2onc(C)c2Cl)c(-c2ncco2)c1
log10 AUC: 5.56
--
compound: CCC(=O)c1c(C)c(C)cc(C)c1NC(=O)c1sccc1S(=O)(=O)Nc1onc(C)c1Cl
log10 AUC: 4.39
--
compound: CC(=O)c1c(C)c(C)cc(C)c1NC(=O)c1sccc1S(=O)(=O)Nc1onc(C)c1Cl
log10 AUC: 4.73

Given the compound `Cc1cc(C)c(NC(=O)c2sccc2S(=O)(=O)Nc2onc(C)c2Cl)c(S(C)(=O)=O)c1` , what is its reported log10 AUC?
4.45

====

method.notes: Half life period was evaluated in rat; 5.9-7.5
Assay type: ADME, organism-based
condition.info: in vivo
experimental.endpoint: half-life (h)
Provide the reading as a plain figure in h.

half-life for `Cc1cc2c(cc1CC(=O)c1sccc1S(=O)(=O)Nc1onc(C)c1Cl)OCO2` ?
7.5

====

method.notes: Half life period was determined
Format: ADME, organism-based
condition.info: rat, in vivo
Cut-off 80 min on half-life: below means true (1), at or above means false (0).

compound: Cc1cc(C)c(NC(=O)c2sccc2S(=O)(=O)Nc2onc(C)c2Cl)c(-c2ncco2)c1
class.label: false (0)

compound: Cc1cc(C)c(NC(=O)c2sccc2S(=O)(=O)Nc2onc(C)c2Cl)c(C(=O)CS(C)(=O)=O)c1
class.label: false (0)

compound: Cc1cc(C)c(NC(=O)c2sccc2S(=O)(=O)Nc2onc(C)c2Cl)c(C(=O)c2ccccc2)c1
class.label: false (0)

half-life strictly < 80 min for this compound? `CO/N=C(\C)c1cc(C)cc(C)c1NC(=O)c1sccc1S(=O)(=O)Nc1onc(C)c1Cl`
true (1)

Does `Cc1cc(C)c(NC(=O)c2sccc2S(=O)(=O)Nc2onc(C)c2Cl)c(S(C)(=O)=O)c1` have half-life strictly under 80 min?
false (0)

Consider the compound `Cc1cc(C)c(NC(=O)c2sccc2S(=O)(=O)Nc2onc(C)c2Cl)c(C(=O)N(C)C)c1` . Is its half-life strictly less than 80 min?
true (1)

====

target.or.test.system: UniProt P24530
Sequence (P24530 whole entry): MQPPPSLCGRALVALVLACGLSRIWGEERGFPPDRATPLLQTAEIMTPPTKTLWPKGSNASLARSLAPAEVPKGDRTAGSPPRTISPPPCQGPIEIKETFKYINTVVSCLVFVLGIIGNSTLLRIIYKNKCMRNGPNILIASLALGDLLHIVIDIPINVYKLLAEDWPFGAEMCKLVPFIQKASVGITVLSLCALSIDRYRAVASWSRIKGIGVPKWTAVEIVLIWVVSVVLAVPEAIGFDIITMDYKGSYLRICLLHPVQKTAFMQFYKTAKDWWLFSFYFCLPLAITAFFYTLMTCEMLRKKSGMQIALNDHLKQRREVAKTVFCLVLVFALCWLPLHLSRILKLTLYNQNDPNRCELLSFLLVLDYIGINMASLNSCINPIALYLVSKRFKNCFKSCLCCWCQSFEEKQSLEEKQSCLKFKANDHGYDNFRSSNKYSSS
method.notes: Inhibitory concentration towards endothelin B receptor in human
experimental.endpoint: pIC50
Recall that pIC50 is obtained by taking minus log10 of the concentration measured in molar.

I have this compound here, `Cc1cc2c(cc1CC(=O)c1sccc1S(=O)(=O)Nc1onc(C)c1Cl)OCO2` , and I need its recorded pIC50.
5.01

====

method.notes: Half life period was evaluated in rat; 0.5-1.0
Type: ADME, organism-based
condition.info: in vivo
Where a SMILES comes first, the peptide text is derived from it. [ ]: non-standard residue; d: D form. The star is where a group is joined. Piperazinyl(4-Ph) = c1ccc(N2CCN(*)CC2)cc1; dGly(2-thienyl) = N[C@@H](C(=O)O)c1cccs1
experimental.endpoint: half-life (h)
Form entry: value (h) — number only.

Field request: half-life | item: CC(C)C[C@@H]1NC(=O)[C@@H](c2cccs2)NC(=O)[C@H](CC(=O)[O-])NC(=O)[C@H](CC(=O)N2CCN(c3ccccc3)CC2)NC(=O)[C@@H](CC(=O)[O-])NC(=O)[C@@H](Cc2c[nH]c3ccccc23)NC1=O.[Na+].[Na+] (cyclo(D(Piperazinyl(4-Ph))D[dGly(2-thienyl)]L[dW][dD]))
1

====

Property: pKi; scope: individual compounds
Protein target, amino acids: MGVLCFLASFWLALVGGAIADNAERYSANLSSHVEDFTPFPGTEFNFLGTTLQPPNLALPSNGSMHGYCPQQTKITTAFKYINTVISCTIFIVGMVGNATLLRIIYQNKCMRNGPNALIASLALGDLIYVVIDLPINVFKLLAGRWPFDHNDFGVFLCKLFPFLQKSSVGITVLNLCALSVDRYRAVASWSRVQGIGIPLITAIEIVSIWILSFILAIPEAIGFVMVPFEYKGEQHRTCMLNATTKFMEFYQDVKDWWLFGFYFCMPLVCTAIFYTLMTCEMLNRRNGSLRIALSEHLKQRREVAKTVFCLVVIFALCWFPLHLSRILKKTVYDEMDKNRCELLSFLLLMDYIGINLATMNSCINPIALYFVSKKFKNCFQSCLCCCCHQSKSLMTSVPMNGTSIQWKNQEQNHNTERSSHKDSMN
Friendly reminder that pKi comes from taking -log10 of the concentration in mol/L.

compound: Cc1cc2c(cc1CC(=O)c1sccc1S(=O)(=O)Nc1onc(C)c1Cl)OCO2 [SITAXENTAN]
test.result: 9.37

Please look at the following compound next.
Suppose we examine the compound `COc1cc(OC)nc(O[C@H](C(=O)O)C(OC)(c2ccccc2)c2ccccc2)n1` ; what pKi value has been reported?
8.22

====

method.notes: Half life period was evaluated in dog; 4-4.8
Format: ADME, organism-based, Canis lupus familiaris
condition.info: in vivo
experimental.endpoint: half-life (h)
Use h as the unit, but write only the number.

Would you mind telling me what half-life value was observed for `Cc1cc2c(cc1CC(=O)c1sccc1S(=O)(=O)Nc1onc(C)c1Cl)OCO2` ?
4.8

====

method.notes: Cmax in rat plasma after oral dose (50 mg/Kg)
Assay type: ADME, organism-based
Design: dose 50 mg/Kg, route oral
Cmax of 10000 ng/mL or higher: Satisfied. Under 10000 ng/mL: Not satisfied.

Example entries and their recorded answers appear below.
compound: Cc1cc(C)c(N(C)C)c(C)c1NC(=O)c1sccc1S(=O)(=O)Nc1onc(C)c1Cl
class.label: Not satisfied
--
compound: CO/N=C(\C)c1cc(C)cc(C)c1NC(=O)c1sccc1S(=O)(=O)Nc1onc(C)c1Cl
class.label: Satisfied
--
compound: Cc1cc(C)c(NC(=O)c2sccc2S(=O)(=O)Nc2onc(C)c2Cl)c(C)c1CO
class.label: Not satisfied
--
compound: Cc1cc(C)c(NC(=O)c2sccc2S(=O)(=O)Nc2onc(C)c2Cl)c(C(=O)N(C)C)c1
class.label: Satisfied

Is Cmax at least 10000 ng/mL? Consider `C/C(=N\O)c1cc(C)cc(C)c1NC(=O)c1sccc1S(=O)(=O)Nc1onc(C)c1Cl`
Not satisfied

====

Reported Cmax values for a set of compounds
method.notes: Cmax in rat plasma after oral dose (50 mg/Kg)
Format: ADME, organism-based
Set-up: dose 50 mg/Kg, route oral

compound: Cc1cc(C)c(NS(C)(=O)=O)c(C)c1NC(=O)c1sccc1S(=O)(=O)Nc1onc(C)c1Cl
Cmax: 2800 ng/mL

Given the entry `Cc1cc(C)c(NC(=O)c2sccc2S(=O)(=O)Nc2onc(C)c2Cl)c(C)c1C#N` , report its measured Cmax.
17300 ng/mL

For the compound shown here, `Cc1cc(C)c(NC(=O)c2sccc2S(=O)(=O)Nc2onc(C)c2Cl)c(-c2ncco2)c1` , give the reported Cmax.
66000 ng/mL

Would you mind telling me what Cmax value was observed for `CCCS(=O)(=O)c1cc(C)cc(C)c1NC(=O)c1sccc1S(=O)(=O)Nc1onc(C)c1Cl` ?
2900 ng/mL

Which value of Cmax has been reported for `CCC(=O)c1c(C)c(C)cc(C)c1NC(=O)c1sccc1S(=O)(=O)Nc1onc(C)c1Cl` in the records?
13000 ng/mL

Look up Cmax for this compound: `CC(=O)OCc1c(C)cc(C)c(NC(=O)c2sccc2S(=O)(=O)Nc2onc(C)c2Cl)c1C`
3800 ng/mL

Look at this compound and give its reported Cmax. `Cc1cc(C)c(NC(=O)c2sccc2S(=O)(=O)Nc2onc(C)c2Cl)c(C(=O)C2CC2)c1`
53400 ng/mL

Can you look up the measured Cmax of `CC(=O)c1c(C)c(C)cc(C)c1NC(=O)c1sccc1S(=O)(=O)Nc1onc(C)c1Cl` for me?
10800 ng/mL
